Recorded measurements of self-splicing fitness (ln), one per entry
Test: self-splicing fitness, log relative to wild type (ln ratio); higher = more splicing; Tetrahymena group I intron in knt gene, E. coli kanamycin selection, DiMSum; sequences stand for … in CUCUCU…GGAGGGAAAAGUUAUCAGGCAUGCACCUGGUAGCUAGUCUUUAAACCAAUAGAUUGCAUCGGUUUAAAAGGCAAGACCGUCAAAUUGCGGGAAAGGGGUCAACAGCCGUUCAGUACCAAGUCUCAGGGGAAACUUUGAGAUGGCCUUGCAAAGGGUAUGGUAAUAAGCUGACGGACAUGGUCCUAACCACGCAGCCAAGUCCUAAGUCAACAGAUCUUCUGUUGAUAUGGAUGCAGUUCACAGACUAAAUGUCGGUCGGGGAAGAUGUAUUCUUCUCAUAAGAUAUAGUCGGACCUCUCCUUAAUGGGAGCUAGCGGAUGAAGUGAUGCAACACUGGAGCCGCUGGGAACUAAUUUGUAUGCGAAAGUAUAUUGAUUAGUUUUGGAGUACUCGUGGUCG;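 also: selection with 25 µg/mL kanamycin versus none on LB agar overnight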
Conditions: 37 °C
Please respond with just the number, no unit label.

Some sequences with known self-splicing fitness (ln) results, for comparison:
CCUGAGCAAUAUUACGCAAA -2.42
AACUAGCAAUAUUACGCGAU -2.22
UAGCAGCAAUAUUACGCGGG -2.04
GGAGAGCAAUAUUACGGUGG -2.25
GUCGAGCAAUAUUACGAUCU -0.451
GGCAAGCAAUAUUACGUCGG -2.47
AGGCAGCAAUAUUACGAUGG -2.44
UAGAAGCAAUAUUACGUCAA -0.86

Asked: What does the data say about its self-splicing fitness (ln)? Entry: `CCGUAGCAAUAUUACGUGUA`
Given back: -3.25

Asked: Same again, this time with `CCAGAGCAAUAUUACGGCAC`
Given back: -2.73

Asked: Please give the result for `CGCUAGCAAUAUUACGAUAG` too.
Given back: -0.433

Asked: Note, next up: `CUUCAGCAAUAUUACGAACU`
Given back: -1.75

Asked: Further, for `AAGUAGCAAUAUUACGUUUA` ?
Given back: -0.835

Asked: Entry `CAUAAGCAAUAUUACGGACG` please
Given back: 0.568

Asked: Try the sequence `UCCGAGCAAUAUUACGGCUA`
Given back: -0.18

Asked: `AACAAGCAAUAUUACGAUAA` , same question.
Given back: -1.15
